Test protocol: Pharmacokinetics of Compound A, plasma concentrations after IV infusion
Type: in vivo, human
Experimental setup: both sexes, human, plasma, intravenous, ENA-001 low dose, N 12; read-out: AUClast Mean
Quantity measured: AUC(0-t) (ng·h/mL)
Give the number; ng·h/mL is assumed, so skip it.

Input: For the molecule shown here, `CCCNc1nc(NCCC)nc(N(C)OC)n1` , give the reported AUC(0-t).
Output: 2630

====

Test protocol: Pharmacokinetics of Compound A, plasma concentrations after IV infusion
Type: in vivo, human
Experimental setup: both sexes, human, plasma, intravenous, ENA-001 low dose, N 12; read-out: tmax Geometric Mean
Quantity measured: Tmax (h)
Give the number; h is assumed, so skip it.

Input: For the compound shown here, `CCCNc1nc(NCCC)nc(N(C)OC)n1` , give the reported Tmax.
Output: 4.25

====

Test protocol: Pharmacokinetics of Compound A, plasma concentrations after IV infusion
Type: in vivo, human
Experimental setup: both sexes, human, plasma, intravenous, ENA-001 high dose, N 12; read-out: tmax Geometric Mean
Quantity measured: Tmax (h)
Give the number; h is assumed, so skip it.

Input: For the compound shown here, CCCNc1nc(NCCC)nc(N(C)OC)n1 [Compound A] , give the reported Tmax.
Output: 3.84

====

Test protocol: Pharmacokinetics of Compound A, plasma concentrations after IV infusion
Format: in vivo, human
Experimental setup: both sexes, human, plasma, intravenous, ENA-001 low dose, N 12; read-out: AUCinf Mean
Quantity measured: AUC(0-inf) (ng·h/mL)
Give the number; ng·h/mL is assumed, so skip it.

Input: For the molecule shown here, `CCCNc1nc(NCCC)nc(N(C)OC)n1` , give the reported AUC(0-inf).
Output: 2670

====

Test protocol: Pharmacokinetics of Compound A, plasma concentrations after IV infusion
Assay type: in vivo, human
Experimental setup: both sexes, human, plasma, intravenous, ENA-001 high dose, N 12; read-out: AUClast Geometric Mean
Quantity measured: AUC(0-t) (ng·h/mL)
Give the number; ng·h/mL is assumed, so skip it.

Input: For the molecule shown here, CCCNc1nc(NCCC)nc(N(C)OC)n1 [Compound A] , give the reported AUC(0-t).
Output: 8240

====

Test protocol: Pharmacokinetics of Compound A, plasma concentrations after IV infusion
Assay type: in vivo, human
Experimental setup: both sexes, human, plasma, intravenous, ENA-001 low dose, N 12; read-out: t1/2 Median (converted)
Quantity measured: half-life

Input: For the compound shown here, CCCNc1nc(NCCC)nc(N(C)OC)n1 [Compound A] , give the reported half-life.
Output: 5.05 h

====

Test protocol: clinical
Experimental setup: both, human, plasma, intravenous, propofol Mean AUClast, during infusion with placebo
Quantity measured: AUC(0-t) (ng·h/mL)
Give the number; ng·h/mL is assumed, so skip it.

Input: For the compound shown here, `CC(C)c1cccc(C(C)C)c1O` , give the reported AUC(0-t).
Output: 4600

====

Test protocol: Pharmacokinetics of Compound A, plasma concentrations after IV infusion
Format: in vivo, human
Experimental setup: both sexes, human, plasma, intravenous, ENA-001 high dose, N 12; read-out: Cmax Median
Description: Subjects underwent 3 separate treatment periods. […] PD will be unblinded for treatment but not subject. […] Participant Disposition Pharmacokinetic samples were measured up to 24 hours after the start of the IV infusion. […] Therefore, a fast decrease in concentration was observed, followed by a slow […].
Quantity measured: Cmax (ng/mL)
Give the number; ng/mL is assumed, so skip it.

Input: For the compound shown here, CCCNc1nc(NCCC)nc(N(C)OC)n1 [Compound A] , give the reported Cmax.
Output: 1520
